# System under test: Epidermal growth factor receptor (Homo sapiens) (UniProt P00533)
# Sequence (P00533 whole entry, looked up): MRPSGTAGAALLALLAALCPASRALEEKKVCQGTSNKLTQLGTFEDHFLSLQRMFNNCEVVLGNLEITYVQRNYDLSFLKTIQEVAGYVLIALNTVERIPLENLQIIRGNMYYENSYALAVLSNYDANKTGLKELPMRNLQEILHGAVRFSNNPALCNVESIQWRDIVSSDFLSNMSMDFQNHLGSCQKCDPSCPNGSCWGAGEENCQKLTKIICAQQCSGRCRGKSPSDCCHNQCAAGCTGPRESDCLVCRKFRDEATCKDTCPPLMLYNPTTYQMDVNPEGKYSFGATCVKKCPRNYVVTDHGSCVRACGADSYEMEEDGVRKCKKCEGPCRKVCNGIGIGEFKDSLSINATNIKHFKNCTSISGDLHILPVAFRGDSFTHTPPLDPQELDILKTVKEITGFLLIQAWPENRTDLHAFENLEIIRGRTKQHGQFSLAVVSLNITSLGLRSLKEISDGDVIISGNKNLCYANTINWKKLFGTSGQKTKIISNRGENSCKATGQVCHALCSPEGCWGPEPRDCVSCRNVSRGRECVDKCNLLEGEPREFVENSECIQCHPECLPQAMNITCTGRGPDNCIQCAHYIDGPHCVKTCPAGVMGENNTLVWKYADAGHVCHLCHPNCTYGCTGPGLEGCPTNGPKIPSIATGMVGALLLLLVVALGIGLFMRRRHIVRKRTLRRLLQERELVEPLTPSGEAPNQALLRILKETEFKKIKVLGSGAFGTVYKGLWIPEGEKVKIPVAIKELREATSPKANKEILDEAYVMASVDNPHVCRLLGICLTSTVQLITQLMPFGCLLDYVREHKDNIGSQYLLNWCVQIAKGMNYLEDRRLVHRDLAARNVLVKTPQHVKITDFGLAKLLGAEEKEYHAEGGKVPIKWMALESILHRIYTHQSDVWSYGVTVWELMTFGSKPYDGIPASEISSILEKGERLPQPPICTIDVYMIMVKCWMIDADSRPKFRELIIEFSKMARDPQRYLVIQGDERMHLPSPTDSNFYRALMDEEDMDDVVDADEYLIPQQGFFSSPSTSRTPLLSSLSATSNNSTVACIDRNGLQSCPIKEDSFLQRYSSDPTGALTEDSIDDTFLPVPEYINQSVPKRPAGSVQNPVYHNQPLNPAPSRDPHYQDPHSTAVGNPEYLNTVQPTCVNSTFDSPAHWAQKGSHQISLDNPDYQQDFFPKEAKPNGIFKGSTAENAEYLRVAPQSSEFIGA
# Method description: EGFR binders on small-molecule microarrays, primary screen, biochemical, small-molecule microarray, 635 nm fluorescence (AID 1104);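 further: score merges 667 nm emission intensity with spot signal to noise over triplicate slides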
# Measurement setup: EGFR binding, higher = more signal
Rule: composite z-score under 0.07 gives No, otherwise Yes.

molecule=C=CCNC(=O)[C@H]1[C@@H]2C(=O)O[C@@H](c3ccccc3)[C@@H](c3ccccc3)N2[C@@H](c2ccc(O)cc2)[C@]12C(=O)N(C(=O)OCCOC)c1ccc(C#CCC(C(=O)OC)C(=O)OC)cc12 label_class=Yes
molecule=C=C(COC)C(=O)CC[C@H](OC(C)=O)c1ccc(OCCO)cc1 label_class=No
molecule="COc1ccc(C(O)C2C=CC3C(=O)N(c4ccccc4)C(=O)C3N2Nc2ccccc2F)cc1 (stereo not given)" label_class=No
molecule=NC(=O)[C@@H]1[C@H]2C(=O)O[C@H](c3ccccc3)[C@H](c3ccccc3)N2[C@H](c2ccc(OCCO)cc2)[C@@]12C(=O)Nc1ccc(C#CCCO)cc12 label_class=No
molecule=C=C(COC)/C(=C/C[C@H](OC(C)=O)c1cccc(OCCO)c1)c1cnc2ccccc2c1 label_class=Yes
molecule=CC(C)C[C@@H]1NC(=O)[C@H]2C[C@@H](C(=O)NCCCCCN)[C@@H](c3cccc(OCCO)c3)N2C1=O label_class=Yes
molecule=COCCOC(=O)N1C(=O)[C@@]2(c3cc(C#CC4=CCCCC4)ccc31)[C@H](c1ccc(O)cc1)N1[C@H](c3ccccc3)[C@H](c3ccccc3)OC(=O)[C@H]1[C@@H]2C(=O)NC[C@H](O)c1ccccc1 label_class=Yes
molecule=O=c1cccc(-c2ccc(F)cc2)o1 label_class=Yes
molecule=CN(C)C(=O)[C@]1(CCS(=O)(=O)c2ccccc2)N=C(c2ccc(OCCCO)cc2)O[C@@H]1c1ccccc1 label_class=No
molecule=C=C(CCCC)C(=O)CC[C@@H](OC(=O)c1cccnc1)c1ccc(OCCO)cc1 label_class=Yes
molecule="O=C1C2C=CC(C(O)c3cc(C(F)(F)F)cc(C(F)(F)F)c3)N(Nc3ccccc3F)C2C(=O)N1c1ccccc1 (stereo not given)" label_class=No
molecule=O=C(CS)NCCCCCNC(=O)[C@@H]1C[C@@H]2C(=O)N[C@@H](Cc3ccccc3)C(=O)N2[C@@H]1c1cccc(OCCO)c1 label_class=Yes
molecule=CN(C)C(=O)[C@@]1(Cc2ccccc2)COC(c2ccc(OCCCO)cc2)=N1 label_class=Yes
molecule=CCCNC(=O)[C@@]1(C)c2ccccc2C(=O)N(Cc2ccccc2)[C@H]1c1ccc(CO)cc1 label_class=No
molecule=C=CCOC(=O)[C@H]1[C@@H]2C(=O)O[C@@H](c3ccccc3)[C@@H](c3ccccc3)N2[C@@H](c2ccc(OCCOC(=O)[C@H]3C[C@H]4C(=O)N[C@@H](CCCCNC(C)=O)C(=O)N4[C@H]3c3cccc(OCCO)c3)cc2)[C@]12C(=O)Nc1ccc(I)cc12 label_class=Yes
molecule=COc1ccc(C(=O)Nc2cccc(CN3C(=O)[C@]4(O[C@H](CCn5cc([C@H](O)c6ccccc6)nn5)[C@@H]([Si](C)(C)c5ccc(OC)cc5)[C@@H]4C)c4ccccc43)c2)cc1 label_class=No
molecule=C[C@@]12COC[C@]13C=C(Br)[C@H](C2)[C@@]1(CO1)C3=O label_class=No
molecule=CC(C)C[C@@H]1NC(=O)[C@@H]2C[C@H](C(=O)NCCCCCC[N+](C)(C)C)[C@H](c3cccc(OCCO)c3)N2C1=O label_class=No
molecule=COC(=O)[C@@]1(Cc2ccc(OC)cc2)[C@H]2c3cc(C(=O)N4CCCC4)n(Cc4ccc(S(C)(=O)=O)cc4)c3C[C@H]2CN1C(=O)c1ccccc1 label_class=Yes
molecule=NC(=O)NCC#Cc1ccc2c(c1)[C@]1(C(=O)N2)[C@H](C(=O)N2CCN(c3ncccn3)CC2)[C@H]2C(=O)O[C@H](c3ccccc3)[C@H](c3ccccc3)N2[C@@H]1c1ccc(OCCO)cc1 label_class=Yes
molecule=O=C1O[C@H](c2ccccc2)[C@H](c2ccccc2)N2[C@H]1[C@@H](C(=O)N1CCCCCCC1)[C@]1(C(=O)Nc3ccc(C#CC4(O)CCCCCC4)cc31)[C@H]2c1ccc(O)cc1 label_class=Yes
molecule=COCC(=C=CC[C@@H](O)c1cccc(OCCO)c1)CCO label_class=No
molecule=O=C(O)[C@H]1C[C@H]2C(=O)N[C@@H](Cc3ccccc3)C(=O)N2[C@H]1c1cccc(OCCO)c1 label_class=Yes
molecule=Cc1ccc(N2C(=O)c3ccccc3[C@](C)(C(=O)NCc3ccccc3)[C@@H]2c2ccc(CO)cc2)nc1 label_class=No
molecule="CC1(C)C(=O)C(c2ccccc2)=C2CN3C(=O)N(CCc4ccccc4)C(=O)C3(Cc3ccc(C(F)(F)F)cc3)C=C21 (stereo not given)" label_class=No
molecule=COC(=O)[C@@]1(Cc2ccc(F)cc2)[C@H]2c3cc(C(=O)N(C)C)n(Cc4c(CO)[nH]cc(C)c4=O)c3C[C@H]2CN1C(=O)c1ccccc1 label_class=No
molecule="CCOC(=O)C1=CCC(c2ccco2)N(S(=O)(=O)c2ccc(C)cc2)C1 (stereo not given)" label_class=Yes
molecule=CCCCC(=O)N(CCN1CCOCC1)[C@@H]1CC(C(=O)NCCO)=C[C@H](Oc2c(I)cc(CO)cc2OC)[C@H]1O label_class=Yes
molecule=CCCCNC(=O)c1ccc(C#C[Si](C(C)C)(C(C)C)C(C)C)c(OC(C)=O)c1 label_class=Yes
